System: TK-10
Method summary: NCI tumour cell line growth inhibition, 48 h
Activity calls are given as the source filed them. No stated cut-off is given here; in the data, active = GI50 up to about 1.1 µM and inactive = higher.
Allowed answers: TRUE for active, FALSE for inactive

Hello, I am checking results. What call was entered for CCCCCCCC/C=C1\CCC(CN2CCOCC2)C1=O (stereo unspecified) ?
FALSE

Hello, I am checking results. What call was entered for O=C1CCCCC(=O)Nc2ccccc2N1 ?
FALSE

Hello, I am checking results. What call was entered for CC1OC(O)CC(N(C)C)C1O.CC1OC(O)CCC1O.CCC1CC(O)c2c(O)c3c(c(O)c2C1O)C(=O)c1cccc(O)c1C3=O (stereo unspecified) ?
TRUE

Hello, I am checking results. What call was entered for N#CC(C(=O)C(=O)Nc1ccc(Cl)c(Cl)c1)c1ccc(Cl)cc1 (stereo unspecified) ?
FALSE

Hello, I am checking results. What call was entered for NCCCN(CCCCN(CCCN)C(=O)OCc1ccccc1)C(=O)OCc1ccccc1 ?
FALSE

Hello, I am checking results. What call was entered for O=C1c2ccccc2CC1C1(O)C(=O)Nc2c(Cl)cc(Cl)cc21 (stereo unspecified) ?
FALSE

Hello, I am checking results. What call was entered for CCOc1c(Cc2ccccc2)c(=O)n2c3ccccc3n3c(=O)n(C)c(=O)c1c23 ?
FALSE

Hello, I am checking results. What call was entered for O=C1NC(=O)C2=C1CCC2O (stereo unspecified) ?
FALSE

Hello, I am checking results. What call was entered for Cn1ncc(NCCn2cnc3c2c(=O)n(C)c(=O)n3C)c(Cl)c1=O ?
FALSE

Hello, I am checking results. What call was entered for Cc1ccc(N(C)S(=O)(=O)c2ccccc2)cc1 ?
FALSE

Now look at this entry.
Hello, I am checking results. What call was entered for Nn1c(Sc2nc3ccccc3c(=O)n2N)nc2ccccc2c1=O ?
FALSE
